The reported measurements were obtained from PubChem BioAssay (NCI).

- System: HOP-92 NSCLC
- Method Summary: NCI tumour cell line growth inhibition, 48 h
Is TGI at least 7 µM? Then yes (1). If not, no (0).

These solved cases illustrate the format of a correct answer.
Compound	Label
O=CC1(C2(C=O)c3ccccc3-c3ccccc32)c2ccccc2-c2ccccc21	no (0)
Cn1c(=O)c2nc(N3CCCCC3)cnc2n(C)c1=O	yes (1)
CC(C)=CCC[C@H](C)[C@H]1CC[C@@H](C)c2cc(O)c(C)cc21	yes (1)
O=C1C(Cl)=C(Nc2cccc(O)c2)C(=O)N1c1cccc(Cl)c1Cl	no (0)
Cc1cccc(NC(=S)N/N=C(/c2ccccc2)c2ccccn2)c1	yes (1)
Nc1ccc(N)c2c1C(=O)c1c(N)ccc(N)c1C2=O	yes (1)
CC(C)(O)[C@H](CCO)O[Si](c1ccccc1)(c1ccccc1)C(C)(C)C	yes (1)
Cc1ccc(C2=C(c3ccccc3)C(O)(c3ccc(C)cc3)C(c3ccccc3)=C2c2ccc(C)cc2)cc1	yes (1)

Incoming: Confirm if TGI reported for the compound CCOC(=O)C1(Cc2ccccc2)Cc2ccccc2C1=O (stereo not given) is 7 µM or above.
Outgoing: yes (1)

====

- System: UACC-257 melanoma
- Method Summary: NCI tumour cell line growth inhibition, 48 h
Is TGI at least 50 µM? Then MET. If not, NOT MET.

These solved cases illustrate the format of a correct answer.
Compound	Label
Cc1ccc(NC(=O)c2nc(S(C)=O)oc2-c2ccc(F)cc2)cc1Nc1nccc(-c2cccnc2)n1 (configuration not stated)	NOT MET
CN1CCCN(C(c2ccccc2)c2ccc(Br)cc2)CC1 (configuration not stated)	NOT MET

Incoming: Confirm if TGI reported for the compound "C/C(=N\NC(=O)c1ccncc1)c1ccc(O)cc1O" is 50 µM or above.
Outgoing: MET

Incoming: Can you handle "CC[C@@]1(O)C(=O)OCc2c1cc1n(c2=O)Cc2c-1nc1ccccc1c2/C=N/OC(C)(C)C" next?
Outgoing: NOT MET

Incoming: Can you handle "O=C([O-])c1ccccc1Nc1ccccc1[O-].[Ni+3].[OH3+].[OH3+].[OH3+]" next?
Outgoing: MET

Incoming: Can you handle "CCN1CCN(C(=O)[C@]23CCC(C)(C)C[C@@H]2C2=CC[C@@H]4[C@@]5(C)C/C(=C/c6cccnc6)C(=O)C(C)(C)[C@@H]5CC[C@@]4(C)[C@]2(C)CC3)CC1" next?
Outgoing: NOT MET

====

- Tested on: PC-3 prostate
- Method Summary: NCI tumour cell line growth inhibition, 48 h
Readout Kind: TGI

Before answering, review these 3 worked examples.
Compound	Tested System	Result
Cc1nn(C)c2c1C(=O)N(C)CC(=O)N2C	PC-3 prostate	> 100 µM
O=C1O[C@H]2[C@@H]3OC(=O)c4cc(O)c(O)c(O)c4-c4c(cc(O)c(O)c4O)C(=O)OC[C@H]2O[C@@H](OC(=O)c2cc(O)c(O)c(O)c2)[C@@H]3OC(=O)c2cc(O)c(O)c3c2[C@@H]2C1=CC(=O)C(O)(O)C2(O)O3 (stereo not given in full)	PC-3 prostate	> 100 µM
CCOC1SC(SC)=NN1C(=O)C(OC(C)=O)C(OC(C)=O)C(OC(C)=O)C(OC(C)=O)C(=O)N1N=C(SC)SC1OCC (stereo not given)	PC-3 prostate	> 100 µM

Field: TGI. Fill in for each record below.
1. O=C1OC2C(O)C(=O)OC2C1O (stereo not given)
2. CN1CCCCC1CCN1c2ccccc2Sc2ccc(S(C)=O)cc21 (stereo not given)
3. COc1ccc(CC2C3=C(CCCC3)CCN2C)cc1 (stereo not given)
4. CC1(C)C2CCC1(CC(=O)O)C(Cl)C2 (stereo not given)
5. COC(=O)[C@@H]1C[C@]2(CC=C(C)C)c3ccccc3N(S(=O)(=O)c3ccccc3)[C@@H]2N1C(=O)OC
6. Cn1cnc([N+](=O)[O-])c1Sc1nc(N)nc2c1ncn2Cc1ccccc1
7. COc1cc(C2C(C#N)=C(N)Oc3cc(O)ccc32)cc(OC)c1OC (stereo not given)
8. C=C(C(=O)O)[C@@H]1C[C@@H]2O[C@H]1CC(C)=CCC/C(C)=C/CC[C@@]2(C)O

Outgoing:
1. > 100 µM
2. > 100 µM
3. > 100 µM
4. > 100 µM
5. > 100 µM
6. 36.3 µM
7. > 100 µM
8. > 100 µM
